Assay: Phase 1 trial: pharmacokinetics of surufatinib and toripalimab (non-compartmental analysis)
Assay type: in vivo, human
Conditions: human, in vivo, oral, surufatinib 250 mg + toripalimab 240 mg; C2D1; N 11; read-out: Surufatinib t1/2, median (converted)
property: half-life
Please give the number followed by its unit.

Summary for this molecule, Cc1cc2cc(Oc3ccnc(Nc4cccc(CS(=O)(=O)NCCN(C)C)c4)n3)ccc2[nH]1 : half-life is 11.9 h

====

Test: Phase 1 trial: pharmacokinetics of surufatinib and toripalimab (non-compartmental analysis)
Assay type: in vivo, human
Details: human, in vivo, oral, surufatinib 200 mg + toripalimab 240 mg; C1D1; footnote 1 (N 4); read-out: Surufatinib Vd/F, geometric mean (CV%)
property: Vd/F (L)
One number for each entry, in L.

Value of Vd/F reported for the compound Cc1cc2cc(Oc3ccnc(Nc4cccc(CS(=O)(=O)NCCN(C)C)c4)n3)ccc2[nH]1 [surufatinib] is 926

====

Assay: Phase 1 trial: pharmacokinetics of surufatinib and toripalimab (non-compartmental analysis)
Type: in vivo, human
Conditions: human, in vivo, oral, surufatinib 300 mg + toripalimab 240 mg; C2D1; N 10; read-out: Surufatinib Tmax, median
property: Tmax
// unit must come after the numeric part

Consider Cc1cc2cc(Oc3ccnc(Nc4cccc(CS(=O)(=O)NCCN(C)C)c4)n3)ccc2[nH]1 . Its measured Tmax is 2.97 h

====

Test: Phase 1 trial: pharmacokinetics of surufatinib and toripalimab (non-compartmental analysis)
Type: in vivo, human
Conditions: human, in vivo, oral, surufatinib 200 mg + toripalimab 240 mg; C2D1; N 6; read-out: Surufatinib Cmax, geometric mean (CV%)
property: Cmax (ng/mL)
Numbers only, in ng/mL.

Memo: Cc1cc2cc(Oc3ccnc(Nc4cccc(CS(=O)(=O)NCCN(C)C)c4)n3)ccc2[nH]1 [surufatinib] , reported Cmax: 268

====

Assay: Phase 1 trial: pharmacokinetics of surufatinib and toripalimab (non-compartmental analysis)
Type: in vivo, human
Conditions: human, in vivo, oral, surufatinib 300 mg + toripalimab 240 mg; C1D1; footnote 1 (N 10); read-out: Surufatinib t1/2, median (converted)
property: half-life
# output: numeric value plus its unit

Entry Cc1cc2cc(Oc3ccnc(Nc4cccc(CS(=O)(=O)NCCN(C)C)c4)n3)ccc2[nH]1 — recorded half-life = 8.12 h

====

Test: Phase 1 trial: pharmacokinetics of surufatinib and toripalimab (non-compartmental analysis)
Type: in vivo, human
Settings: human, in vivo, oral, surufatinib 250 mg + toripalimab 240 mg; C3D1; N 9; read-out: Surufatinib Cmax, geometric mean (CV%)
property: Cmax (ng/mL)
Numbers only, in ng/mL.

// Cc1cc2cc(Oc3ccnc(Nc4cccc(CS(=O)(=O)NCCN(C)C)c4)n3)ccc2[nH]1 : Cmax value = 310

====

Test: Phase 1 trial: pharmacokinetics of surufatinib and toripalimab (non-compartmental analysis)
Assay type: in vivo, human
Details: human, in vivo, oral, surufatinib 200 mg + toripalimab 240 mg; C3D1; N 2; read-out: Surufatinib AUC0-τ, geometric mean (CV%)
property: AUC (ng·h/mL)
One number for each entry, in ng·h/mL.

In plain terms, Cc1cc2cc(Oc3ccnc(Nc4cccc(CS(=O)(=O)NCCN(C)C)c4)n3)ccc2[nH]1 has a documented AUC of 2300

====

Assay: Phase 1 trial: pharmacokinetics of surufatinib and toripalimab (non-compartmental analysis)
Assay type: in vivo, human
Conditions: human, in vivo, oral, surufatinib 300 mg + toripalimab 240 mg; C1D1; footnote 1 (N 10); read-out: Surufatinib Vd/F, geometric mean (CV%)
property: Vd/F (L)
Numbers only, in L.

Briefly, Vd/F measured for Cc1cc2cc(Oc3ccnc(Nc4cccc(CS(=O)(=O)NCCN(C)C)c4)n3)ccc2[nH]1 [surufatinib] : 1620

====

Assay: Phase 1 trial: pharmacokinetics of surufatinib and toripalimab (non-compartmental analysis)
Format: in vivo, human
Conditions: human, in vivo, oral, surufatinib 300 mg + toripalimab 240 mg; C3D1; N 10; read-out: Surufatinib Vd/F, geometric mean (CV%)
property: Vd/F (L)
Give bare numbers, in L.

Lab book: Vd/F of Cc1cc2cc(Oc3ccnc(Nc4cccc(CS(=O)(=O)NCCN(C)C)c4)n3)ccc2[nH]1 noted as 1510

====

Test: Phase 1 trial: pharmacokinetics of surufatinib and toripalimab (non-compartmental analysis)
Type: in vivo, human
Conditions: human, in vivo, oral, surufatinib 300 mg + toripalimab 240 mg; C1D1; N 12; read-out: Surufatinib Cmax, geometric mean (CV%)
property: Cmax (ng/mL)
Give bare numbers, in ng/mL.

Entry Cc1cc2cc(Oc3ccnc(Nc4cccc(CS(=O)(=O)NCCN(C)C)c4)n3)ccc2[nH]1 — recorded Cmax = 228

====

Experiment: Phase 1 trial: pharmacokinetics of surufatinib and toripalimab (non-compartmental analysis)
Format: in vivo, human
Settings: human, in vivo, oral, surufatinib 250 mg + toripalimab 240 mg; C3D1; footnote 3 (N 8); read-out: Surufatinib t1/2, median (converted)
property: half-life (h)
Answers are plain numbers, in h.

half-life reported for this molecule Cc1cc2cc(Oc3ccnc(Nc4cccc(CS(=O)(=O)NCCN(C)C)c4)n3)ccc2[nH]1 [surufatinib] : 15.6

====

Assay: Phase 1 trial: pharmacokinetics of surufatinib and toripalimab (non-compartmental analysis)
Assay type: in vivo, human
Details: human, in vivo, oral, surufatinib 200 mg + toripalimab 240 mg; C2D1; N 3; read-out: Surufatinib AUC0-τ, geometric mean (CV%)
property: AUC (ng·h/mL)
Answers are plain numbers, in ng·h/mL.

The compound Cc1cc2cc(Oc3ccnc(Nc4cccc(CS(=O)(=O)NCCN(C)C)c4)n3)ccc2[nH]1 [surufatinib] showed AUC equal to 3010

====

Assay: Phase 1 trial: pharmacokinetics of surufatinib and toripalimab (non-compartmental analysis)
Type: in vivo, human
Details: human, in vivo, oral, surufatinib 200 mg + toripalimab 240 mg; C1D1; N 6; read-out: Surufatinib Cmax, geometric mean (CV%)
Protocol: Blood samples were collected for PK evaluation at multiple time points on Cycle 1 Day 1, Cycle 2 Day 1, and Cycle 3 Day 1 for surufatinib and toripalimab, respectively. […] Two-sided 95% confidence interval (CI) of ORR and DCR were computed using the Exact (Clopper–Pearson) method. […] PK parameters were calculated by non-compartmental analysis using Phoenix WinNonlin v8.0.
property: Cmax (ng/mL)
Numbers only, in ng/mL.

For record Cc1cc2cc(Oc3ccnc(Nc4cccc(CS(=O)(=O)NCCN(C)C)c4)n3)ccc2[nH]1 [surufatinib] the listed Cmax is 277

====

Test: Phase 1 trial: pharmacokinetics of surufatinib and toripalimab (non-compartmental analysis)
Type: in vivo, human
Conditions: human, in vivo, oral, surufatinib 250 mg + toripalimab 240 mg; C2D1; N 11; read-out: Surufatinib AUC0-τ, geometric mean (CV%)
Procedure: Blood samples were collected for PK evaluation at multiple time points on Cycle 1 Day 1, Cycle 2 Day 1, and Cycle 3 Day 1 for surufatinib and toripalimab, respectively. […] Two-sided 95% confidence interval (CI) of ORR and DCR were computed using the Exact (Clopper–Pearson) method. […] PK parameters were calculated by non-compartmental analysis using Phoenix WinNonlin v8.0.
property: AUC (ng·h/mL)
Answers are plain numbers, in ng·h/mL.

AUC reading for Cc1cc2cc(Oc3ccnc(Nc4cccc(CS(=O)(=O)NCCN(C)C)c4)n3)ccc2[nH]1 : 3610

====

Assay: Phase 1 trial: pharmacokinetics of surufatinib and toripalimab (non-compartmental analysis)
Format: in vivo, human
Settings: human, in vivo, oral, surufatinib 200 mg + toripalimab 240 mg; C1D1; footnote 1 (N 4); read-out: Surufatinib t1/2, median (converted)
property: half-life (h)
One number for each entry, in h.

Cc1cc2cc(Oc3ccnc(Nc4cccc(CS(=O)(=O)NCCN(C)C)c4)n3)ccc2[nH]1 has a reported half-life of 4.49

====

Test: Phase 1 trial: pharmacokinetics of surufatinib and toripalimab (non-compartmental analysis)
Assay type: in vivo, human
Conditions: human, in vivo, oral, surufatinib 300 mg + toripalimab 240 mg; C3D1; N 10; read-out: Surufatinib t1/2, median (converted)
property: half-life (h)
Answers are plain numbers, in h.

half-life recorded for this compound, Cc1cc2cc(Oc3ccnc(Nc4cccc(CS(=O)(=O)NCCN(C)C)c4)n3)ccc2[nH]1 , is 12.2

====

Assay: Phase 1 trial: pharmacokinetics of surufatinib and toripalimab (non-compartmental analysis)
Type: in vivo, human
Settings: human, in vivo, oral, surufatinib 300 mg + toripalimab 240 mg; C2D1; N 9; read-out: Surufatinib AUC0-τ, geometric mean (CV%)
property: AUC (ng·h/mL)
Give bare numbers, in ng·h/mL.

According to the records, this compound Cc1cc2cc(Oc3ccnc(Nc4cccc(CS(=O)(=O)NCCN(C)C)c4)n3)ccc2[nH]1 [surufatinib] displays AUC of 3670

====

Assay: Phase 1 trial: pharmacokinetics of surufatinib and toripalimab (non-compartmental analysis)
Assay type: in vivo, human
Conditions: human, in vivo, oral, surufatinib 300 mg + toripalimab 240 mg; C1D1; N 12; read-out: Surufatinib Tmax, median
property: Tmax (h)
One number for each entry, in h.

# Tmax of Cc1cc2cc(Oc3ccnc(Nc4cccc(CS(=O)(=O)NCCN(C)C)c4)n3)ccc2[nH]1 = 2
